The values you see were collected from the RNAGym collection of RNA variant scans (doi:10.7554/elife.90254).

B1: LINE1-mini (parent)
chain: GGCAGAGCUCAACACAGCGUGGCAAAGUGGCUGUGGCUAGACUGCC

# Variants of: B1
# experimentalProtocol: self-cleavage, relative activity (ratio to wild type); higher = more cleavage; in vitro, sequencing; the parent is a self-cleaving ribozyme
self-cleavage reference
Answer as a number with no unit attached.

Answered examples (10):
For the variant GGCAGAGCUCAACACAGCUUGGCAAAGUGGCUGUGGCUAGUCUGCC [G19U A41U] , what self-cleavage is on record? 0.41

For the variant GGCAGAGCUCAACACAGCGUGGCAGAGUGGCUGUGGCUAGACUGCU [A25G C46U] , what self-cleavage is on record? 0.4

For the variant GGCAGAGCUCAACACCGCGUGACAAAGUGGCUGUGGCUAGACUGCC [A16C G22A] , what self-cleavage is on record? 0.1

For the variant AGCAGAGCUCAACACACCGUGGCAAAGUGGCUGUGGCUAGACUGCC [G1A G17C] , what self-cleavage is on record? 0.18

For the variant GGCAGAGCUCAACACAGCGUGGCAGGGUGGCUGUGGCUAGACUGCC [A25G A26G] , what self-cleavage is on record? 0.34

For the variant GGCAGAGCUCAACACAGCGUGGCAUAGUGGCUGUGGCUCGACUGCC [A25U A39C] , what self-cleavage is on record? 0.23

For the variant GGCAGAGCCCAACACACCGUGGCAAAGUGGCUGUGGCUAGACUGCC [U9C G17C] , what self-cleavage is on record? 0.04

For the variant GGCAGAGCUCAACACAUCGUGGCAAAGUGGCUGUGGCUACACUGCC [G17U G40C] , what self-cleavage is on record? 0.17

For the variant GGCAGUGCUCAACACAGCGUGGCAAAGGGGCUGUGGCUAGACUGCC [A6U U28G] , what self-cleavage is on record? 0.6

For the variant GGCAGAGUUCAACACAGCGUGGCAAAGUGGCUCUGGCUAGACUGCC [C8U G33C] , what self-cleavage is on record? 0.07

New cases:
For the variant GGCAGAGCUCAACACAGCGUGGCAAAGCGGCUGUGGCUAGAGUGCC [U28C C42G] , what self-cleavage is on record? 0.13

For the variant GGCAGAGCGCAACACAGCGUGGCAAAGUGGCUGUGGCUAUACUGCC [U9G G40U] , what self-cleavage is on record? 0.08
